Target: eIF4E (Homo sapiens)
Construct: endogenous in cells
Sequence (P06730 whole entry): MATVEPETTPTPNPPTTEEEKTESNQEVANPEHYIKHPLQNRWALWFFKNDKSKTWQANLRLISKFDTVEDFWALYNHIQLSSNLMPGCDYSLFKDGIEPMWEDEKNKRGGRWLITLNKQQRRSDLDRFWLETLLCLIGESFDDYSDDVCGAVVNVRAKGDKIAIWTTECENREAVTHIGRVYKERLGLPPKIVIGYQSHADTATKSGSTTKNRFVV
Experiment: CETSA in intact H1299 cells
Details: read-out: EC50, thermal protection of eIF4E (target engagement); intact H1299 cells, 6 hrs, 57.6 °C
Protocol: Cells (1.5 × 10^6 cells) were plated into 75 cm^2 flasks and allowed to attached overnight. After treatment with compound 4 or 5 for 6 h, they were harvested by trypsinisation and washed x2 in ice cold PBS. Cells were resuspended in 1 ml of cold PBS supplemented with protease and phosphatase inhibitors (Fisher Scientific, cat#1861281). Resuspended cells were divided into 100 μl aliquots and centrifuged at 300 x g for 3 min at 4 °C. […] Samples were then analysed by Western Blot.

| molecule | target_desc | EC50 (nM) |
| --- | --- | --- |
| CC[C@H](O[C@H](C)CO)c1ccc(-c2ccccc2F)cc1NCCO [Compound 4] | eIF4E (Homo sapiens) | 2000 |
